Provide the recorded pKd for the entries that follow.
Target: T1, topo VI KGRR-EEE (Methanosarcina mazei, UniProt Q8PUB7;Q8PUB8 1-369;1-621, K186E;R188E;R189E)
T1 sequence 1: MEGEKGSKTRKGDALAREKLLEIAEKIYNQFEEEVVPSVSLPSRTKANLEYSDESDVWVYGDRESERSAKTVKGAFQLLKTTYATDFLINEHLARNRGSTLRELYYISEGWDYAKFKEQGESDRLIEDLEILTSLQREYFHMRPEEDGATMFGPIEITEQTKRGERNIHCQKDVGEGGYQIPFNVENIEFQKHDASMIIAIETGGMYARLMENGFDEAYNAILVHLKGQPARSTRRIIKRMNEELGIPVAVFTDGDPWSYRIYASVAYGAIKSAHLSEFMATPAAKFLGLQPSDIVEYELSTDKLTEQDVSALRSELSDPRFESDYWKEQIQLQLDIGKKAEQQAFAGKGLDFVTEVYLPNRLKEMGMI
T1 sequence 2: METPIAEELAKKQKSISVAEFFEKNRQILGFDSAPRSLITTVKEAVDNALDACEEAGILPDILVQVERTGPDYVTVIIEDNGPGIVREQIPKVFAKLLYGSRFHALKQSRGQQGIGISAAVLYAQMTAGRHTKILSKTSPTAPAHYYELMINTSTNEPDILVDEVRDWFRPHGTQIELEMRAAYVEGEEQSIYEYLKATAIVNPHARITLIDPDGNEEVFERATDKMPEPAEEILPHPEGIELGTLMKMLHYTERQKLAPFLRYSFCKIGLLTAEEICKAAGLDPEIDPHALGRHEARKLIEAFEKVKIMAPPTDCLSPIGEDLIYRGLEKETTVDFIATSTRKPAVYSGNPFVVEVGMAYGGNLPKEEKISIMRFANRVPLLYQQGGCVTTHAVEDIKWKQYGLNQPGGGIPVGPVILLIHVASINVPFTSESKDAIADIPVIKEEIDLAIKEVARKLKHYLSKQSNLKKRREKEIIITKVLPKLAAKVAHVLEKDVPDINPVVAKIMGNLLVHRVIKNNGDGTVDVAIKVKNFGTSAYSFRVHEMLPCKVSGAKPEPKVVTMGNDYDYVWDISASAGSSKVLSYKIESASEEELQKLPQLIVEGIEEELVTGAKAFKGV
Assay: fluorescence anisotropy; Fluorescence anisotropy, 20 nM FAM-labelled DNA, topo VI 0 and 3.9-4000 nM, no nucleotide; buffer, salt, pH and temperature not given in supplied text
Conditions: protein: recombinant; tags: N-terminal His6-TEV on Top6B, removed; chain copies: 2;2; label: 5'-FAM strand 1; blunt
Answers are plain numbers, as −log10 of the molar value.

Worked cases, pKd given:
| BINDER | pKd |
| --- | --- |
| 70 bp duplex (dsDNA) DNA 1: CCAAATGCTTCAATAATATTGAAAAAGGAAGAGTATGAGTATTCAACATTTCCGTGTCGCCCTTATTCCC DNA 2: GGGAATAAGGGCGACACGGAAATGTTGAATACTCATACTCTTCCTTTTTCAATATTATTGAAGCATTTGG | 6.71 |
| 60 bp duplex (dsDNA) DNA 1: CGCTTCAATAATATTGAAAAAGGAAGAGTATGAGTATTCAACATTTCCGTGTCGCCCTTC DNA 2: GAAGGGCGACACGGAAATGTTGAATACTCATACTCTTCCTTTTTCAATATTATTGAAGCG | 6.92 |
| 20 bp duplex (dsDNA) DNA 1: CGGAAGAGTATGAGTATTCG DNA 2: CGAATACTCATACTCTTCCG | 6.47 |
| 40 bp duplex (dsDNA) DNA 1: CTATTGAAAAAGGAAGAGTATGAGTATTCAACATTTCCGC DNA 2: GCGGAAATGTTGAATACTCATACTCTTCCTTTTTCAATAG | 7.12 |

Okay, now this binder:
Exercise: Complete the entry with pKd for 30 bp duplex (dsDNA) DNA 1: CAAAAAGGAAGAGTATGAGTATTCAACATC DNA 2: GATGTTGAATACTCATACTCTTCCTTTTTG
Key: 7.09
